Source listed as ChEMBL document CHEMBL3576814.

# experimental.system: UniProt P48775
# Sequence (P48775 whole entry, looked up): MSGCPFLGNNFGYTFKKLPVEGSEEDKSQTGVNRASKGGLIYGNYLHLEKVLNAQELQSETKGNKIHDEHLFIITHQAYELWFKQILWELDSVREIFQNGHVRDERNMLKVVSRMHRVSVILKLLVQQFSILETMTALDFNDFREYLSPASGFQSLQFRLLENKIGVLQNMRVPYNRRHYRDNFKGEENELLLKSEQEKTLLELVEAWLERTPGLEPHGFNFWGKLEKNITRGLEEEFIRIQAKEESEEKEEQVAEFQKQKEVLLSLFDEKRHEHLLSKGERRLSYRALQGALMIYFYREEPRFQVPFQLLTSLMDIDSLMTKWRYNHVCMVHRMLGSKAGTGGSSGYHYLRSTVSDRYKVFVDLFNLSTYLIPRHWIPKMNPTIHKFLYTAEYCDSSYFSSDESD
# procedure.text: Activity of 1 uM recombinant human TDO assessed as substrate consumption at 100 uM at 37 degC at pH 7.5 after 1 hr by HPLC with fluorescence detection method
measure.name: Activity (%)
The reply should be a number in %, with the unit left off.

Request: Give the reported Activity for NC(Cc1cn(CCF)c2ccccc12)C(=O)O (racemic) (system: UniProt P48775).
Response: 0

Request: Request body: readout Activity, system UniProt P48775, query Cn1cc(C[C@H](N)C(=O)O)c2ccccc21 . Return the value.
Response: 0

Request: Look up Activity with UniProt P48775 for this molecule: N[C@@H](Cc1c[nH]c2ccccc12)C(=O)O
Response: 67

Request: Look up Activity with UniProt P48775 for this molecule: N[C@@H](Cc1c[nH]c2ccc(O)cc12)C(=O)O
Response: 0

====

# procedure.text: Retention time of the compound by HPLC analysis
# Type: physicochemical
Please provide measured Retention_time for the entries that follow.
Provide the reading as a plain figure in min.

Request: GET /values?readout=Retention_time&item= Cn1cc(C[C@H](N)C(=O)O)c2ccccc21
Response: 9.4

Request: GET /values?readout=Retention_time&item= N[C@@H](Cc1c[nH]c2ccc(O)cc12)C(=O)O
Response: 5.1

Request: // Retention_time lookup, key: N[C@@H](Cc1c[nH]c2ccccc12)C(=O)O
Response: 5.4

Request: Would you kindly share the measured Retention_time for CC(=O)N[C@@H](Cc1c[nH]c2ccccc12)C(=O)O ?
Response: 7

Request: So what's the measured Retention_time for this one? NC(Cc1cn(CCF)c2ccccc12)C(=O)O (racemic)
Response: 9.2

Request: Recorded Retention_time of N[C@@H](Cc1cn(Cc2cn(CCF)nn2)c2ccccc12)C(=O)O , please.
Response: 16.4

Request: Can you share its Retention_time? I mean this compound: CC(N)(Cc1c[nH]c2ccccc12)C(=O)O (stereo not given)
Response: 7

Request: May I ask what Retention_time has been recorded for CC(N)Cc1c[nH]c2ccccc12 (stereo not given) ?
Response: 11.1

Request: Dear colleague, I am looking for the recorded Retention_time of the following compound: CC(C)(C)OC(=O)N[C@@H](Cc1c[nH]c2ccccc12)C(=O)O
Response: 5.9

Request: Bench note: what Retention_time did NCCc1c[nH]c2ccccc12 show?
Response: 9
